src = ChEMBL document CHEMBL1157246

Listing of recorded ED50 by entry.
# Tested on: L5178Y
# method-notes: Cytotoxicity against mouse L5178Y cells after 72 hrs by MTT assay
# Format: functional

- compound: "CC(C)=CCC(O[C@H]1OC[C@@H](O)[C@@H](O)[C@H]1O)/C(C)=C/C=C/C(C)=C1\\C(=O)C[C@H]2[C@@]3(C)CC[C@@H](O)C(C)(C)[C@@H]3CC[C@]12C (stereo not given in full)"
  system: "L5178Y"
  ED50 / nmol: 2.4
- compound: "C/C(C(=O)/C=C/C(C)=C/C=C/C(C)(C)O)=C1/C(=O)C[C@H]2[C@@]3(C)CC[C@H](O)C(C)(C)[C@@H]3CC[C@]12C [GLOBOSTELLETIN]"
  system: "L5178Y"
  ED50 / nmol: 5.34
- compound: "CCOC(/C=C/C(C)=C/C=C/C(C)=C1/C(=O)C[C@H]2[C@@]3(C)CC[C@@H](O)[C@](C)(C(=O)O)[C@@H]3CC[C@]12C)C(C)(C)O (stereo not given in full) [GLOBOSTELLATIC ACID H, I]"
  system: "L5178Y"
  ED50 / nmol: 0.31
- compound: "C/C(C(=O)/C=C/C(C)=C/C=C/C(C)(C)O)=C1/C(=O)C[C@H]2[C@@]3(C)CC[C@@H](O)[C@](C)(C(=O)O)[C@@H]3CC[C@]12C [GLOBOSTELLATIC ACID F]"
  system: "L5178Y"
  ED50 / nmol: 10.36
- compound: "CC(/C=C/C(O)C(C)(C)O)=C\\C=C\\C(C)=C1\\C(=O)C[C@H]2[C@@]3(C)CC[C@@H](O)[C@](C)(C(=O)O)[C@@H]3CC[C@]12C (stereo not given in full) [GLOBOSTELLATIC ACID L, M]"
  system: "L5178Y"
  ED50 / nmol: 0.92
